Target Under Test: KRAS G12S (Homo sapiens, UniProt P01116+P62937, G12S)
Sequence (P01116 1-169 isoform P01116-2 G12S limits assumed): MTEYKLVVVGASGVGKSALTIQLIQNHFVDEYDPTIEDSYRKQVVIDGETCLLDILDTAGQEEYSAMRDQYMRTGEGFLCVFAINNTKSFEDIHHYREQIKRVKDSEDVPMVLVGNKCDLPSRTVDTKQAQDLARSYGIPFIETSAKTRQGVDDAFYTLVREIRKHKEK
Sequence (P62937 whole entry): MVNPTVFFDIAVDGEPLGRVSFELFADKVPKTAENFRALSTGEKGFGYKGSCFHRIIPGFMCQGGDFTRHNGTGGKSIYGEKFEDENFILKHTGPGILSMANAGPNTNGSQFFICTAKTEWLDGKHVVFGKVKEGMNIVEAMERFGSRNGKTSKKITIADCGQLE
Protocol Notes: Ras-Raf disruption/FRET/MOA assay, KRAS G12S
Type: biochemical
Stated Conditions: disruption of BRAF RBD binding, with Cyclophilin A; read-out: KRAS G12S FRET IC50
pIC50: −log10 of the molar value.
Measured Attribute: pIC50

Sample records with pIC50:
| Compound | pIC50 |
| --- | --- |
| CCn1c(-c2cnccc2COC)c2c3cc(ccc31)-c1cc(O)cc(c1)C[C@H](NC(=O)[C@H](C(C)C)N(C)C(=O)CN(C)C(=O)[C@H]1CN1C(C)=O)C(=O)N1CCC[C@H](N1)C(=O)OCC(C)(C)C2 | 7.00 to 8.00 |
| CCn1c(-c2cccnc2[C@H](C)OC)c2c3cc(ccc31)-c1csc(n1)C[C@H](NC(=O)[C@H](C(C)C)N(C)C(=O)N1C3CCC1CN(C(=O)[C@H]1CN1)C3)C(=O)N1CCC[C@H](N1)C(=O)OCC(C)(C)C2 | 6.00 to 7.00 |

Form: compound = CCn1c(-c2cccnc2[C@H](C)OC)c2c3cc(ccc31)-c1cc(CF)cc(c1)C[C@H](NC(=O)[C@H](C1CCCC1)N1CC[C@]3(CCN(C(=O)[C@@H]4N[C@@H]4C4CC4)C3)C1=O)C(=O)N1CCC[C@H](N1)C(=O)OCC(C)(C)C2 ; pIC50 = 6.00 to 7.00

Memo: CCn1c(-c2cnccc2COC)c2c3cc(ccc31)-c1cc(O)cc(c1)C[C@H](NC(=O)[C@H](C(C)C)N(C)C(=O)CN(C)C(=O)C1CN1C(C)=O)C(=O)N1CCC[C@H](N1)C(=O)OCC(C)(C)C2 (stereo partly shown) , reported pIC50: 6.00 to 7.00

----------
Let's look at some compounds and their measured IC50.
Target Under Test: NRAS Q61K (Homo sapiens, UniProt P01111+P62937, Q61K)
Construct: His6
Sequence (P01111 whole entry Q61K, one chain of several): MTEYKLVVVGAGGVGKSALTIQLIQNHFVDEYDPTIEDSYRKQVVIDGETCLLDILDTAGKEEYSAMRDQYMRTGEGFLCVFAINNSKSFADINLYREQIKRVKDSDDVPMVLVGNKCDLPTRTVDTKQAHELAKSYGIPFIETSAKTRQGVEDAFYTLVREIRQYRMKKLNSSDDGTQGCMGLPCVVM
Protocol Notes: Ras-Raf disruption/FRET/MOA assay, NRAS Q61K
Type: biochemical
Stated Conditions: NRAS Q61K; read-out: NRAS Q61K FRET data IC50

Solved cases (3 shown):
| Compound | Obs Value |
| --- | --- |
| CCn1c(-c2cccnc2[C@H](C)OC)c2c3cc(ccc31)-c1cc(O)cc(c1)C[C@H](NC(=O)[C@H](C(C)C)N1CCCC3(CN(C(=O)[C@@H]4CN4)C3)C1=O)C(=O)N1CCC[C@H](N1)C(=O)OCC(C)(C)C2 [Compound 306] | 0.1 to 1 µM |
| CCn1c(-c2cc(N3CCN(C)CC3)cnc2[C@H](C)OC)c2c3cc(ccc31)-c1csc(n1)C[C@H](NC(=O)[C@H](C1CCCC1)N1CC[C@]3(CCN(C(=O)[C@@H]4N[C@@H]4C4CC4)C3)C1=O)C(=O)N1CCC[C@H](N1)C(=O)OCC(C)(C)C2 [Compound 324] | 0.1 to 1 µM |
| CCn1c(-c2cccnc2[C@H](C)OC)c2c3cc(ccc31)-c1cc(cc(C(F)F)c1)C[C@H](NC(=O)[C@H](C1CCCC1)N1CC[C@]3(CCN(C(=O)[C@@H]4N[C@@H]4C4CC4)C3)C1=O)C(=O)N1CCC[C@H](N1)C(=O)OCC(C)(C)C2 [Compound 318] | 1 to 10 µM |

Attention now turns to another entry.
Reported IC50 for CCn1c(-c2cccnc2[C@H](C)OC)c2c3cc(ccc31)-c1csc(n1)C[C@H](NC(=O)[C@H](C1CCCC1)N1CC[C@]3(CCN(C(=O)[C@@H]4N[C@@H]4C4CC4)C3)C1=O)C(=O)N1CCC[C@H](N1)C(=O)OCC(C)(C)C2 [Compound 234] was 1 to 10 µM

----------
Target Under Test: KRAS G13D (Homo sapiens, UniProt P01116+P62937, G13D)
Sequence (P01116 1-169 isoform P01116-2 G13D limits assumed, one chain of several): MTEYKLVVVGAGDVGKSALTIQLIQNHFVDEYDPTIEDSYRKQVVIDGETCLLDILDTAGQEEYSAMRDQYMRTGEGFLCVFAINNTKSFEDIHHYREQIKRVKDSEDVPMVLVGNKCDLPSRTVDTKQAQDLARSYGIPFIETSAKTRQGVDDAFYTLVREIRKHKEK
Protocol Notes: Ras-Raf disruption/FRET/MOA assay, KRAS G13D
Format: biochemical
Stated Conditions: disruption of BRAF RBD binding, with Cyclophilin A; read-out: KRAS G13D FRET IC50
Readings of IC50 for the listed molecules

Please review the entries below; each comes with its answer.
| Molecule | Target Under Test | Obs Value |
| --- | --- | --- |
| CCn1c(-c2cc(N3CCN(C)CC3)cnc2[C@H](C)OC)c2c3cc(ccc31)-c1csc(n1)C[C@H](NC(=O)[C@H](C1CCCC1)N1CC[C@]3(CCN(C(=O)[C@@H]4N[C@@H]4C4CC4)C3)C1=O)C(=O)N1CCC[C@H](N1)C(=O)OCC(C)(C)C2 [Compound 324] | KRAS G13D (Homo sapiens, UniProt P01116+P62937, G13D) | 1000 to 10000 nM |
| CCn1c(-c2cccnc2[C@H](C)OC)c2c3cc(ccc31)-c1cc(O)cc(c1)C[C@H](NC(=O)[C@H](C(C)C)N(C)C(=O)[C@@H]1CN(C(=O)[C@H]3CN3)C[C@@H]1C)C(=O)N1CCC[C@H](N1)C(=O)OCC(C)(C)C2 [Compound 88] | KRAS G13D (Homo sapiens, UniProt P01116+P62937, G13D) | 10 to 100 nM |
| CCn1c(-c2cnccc2COC)c2c3cc(ccc31)-c1cc(O)cc(c1)C[C@H](NC(=O)[C@H](C(C)C)N(C)C(=O)CN(C)C(=O)[C@@H]1CN1C(C)=O)C(=O)N1CCC[C@H](N1)C(=O)OCC(C)(C)C2 [Compound 35] | KRAS G13D (Homo sapiens, UniProt P01116+P62937, G13D) | 100 to 1000 nM |

Measured IC50 of CCn1c(-c2cccnc2[C@H](C)OC)c2c3cc(ccc31)-c1cc(O)cc(c1)C[C@H](NC(=O)[C@H](C(C)C)N1CCC3(CCN(C(=O)[C@@H]4CN4)CC3)C1=O)C(=O)N1CCC[C@H](N1)C(=O)OCC(C)(C)C2 [Compound 195] : 10 to 100 nM

----------
A collection of compounds and their measured pIC50
Target Under Test: NRAS G12C (Homo sapiens, UniProt P01111+P62937, G12C)
Construct: His6
Sequence (P01111 whole entry G12C, one chain of several): as the sequence (P01111 whole entry Q61K, one chain of several) above, with G12C, K61Q counted along it
Protocol Notes: Ras-Raf disruption/FRET/MOA assay, NRAS G12C
Assay type: biochemical
Stated Conditions: NRAS G12C; read-out: NRAS G12C FRET data IC50
pIC50: −log10 of the molar value.

Sample CCn1c(-c2cccnc2[C@H](C)OC)c2c3cc(ccc31)-c1cc(O)cc(c1)C[C@H](NC(=O)[C@H](C(C)C)N1CCC3(CCN(C(=O)[C@@H]4CN4)CC3)C1=O)C(=O)N1CCC[C@H](N1)C(=O)OCC(C)(C)C2 ; pIC50 observed: 7.00 to 8.00

Looking up CCn1c(-c2cnccc2COC)c2c3cc(ccc31)-c1cc(O)cc(c1)C[C@H](NC(=O)[C@H](C(C)C)N(C)C(=O)CN(C)C(=O)[C@@H]1[C@H](C3CC3)N1[S@@+]([O-])C(C)(C)C)C(=O)N1CCC[C@H](N1)C(=O)OCC(C)(C)C2 (stereo partly shown) , I see its pIC50 listed as 7.00 to 8.00

----------
Target Under Test: KRAS WT (Homo sapiens, UniProt P01116+P62937)
Sequence (P01116 1-169 isoform P01116-2 limits assumed, one chain of several): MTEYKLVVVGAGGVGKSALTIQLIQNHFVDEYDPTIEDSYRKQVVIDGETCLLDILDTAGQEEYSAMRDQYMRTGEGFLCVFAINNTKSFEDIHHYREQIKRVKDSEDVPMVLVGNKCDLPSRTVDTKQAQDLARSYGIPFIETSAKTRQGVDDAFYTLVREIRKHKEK
Protocol Notes: Ras-Raf disruption/FRET/MOA assay, KRAS WT
Format: biochemical
Stated Conditions: disruption of BRAF RBD binding, with Cyclophilin A; read-out: KRAS WT FRET IC50
pIC50: −log10 of the molar value.
pIC50 values, listed per item

# annotated cases, reported pIC50 shown
| Compound | pIC50 |
| --- | --- |
| CCn1c(-c2cnccc2COC)c2c3cc(ccc31)-c1cc(O)cc(c1)C[C@H](NC(=O)[C@@H](CNC1=NCCO1)C(C)C)C(=O)N1CCC[C@H](N1)C(=O)OCC(C)(C)C2 | 5.00 to 6.00 |
| CCn1c(-c2cnccc2COC)c2c3cc(ccc31)-c1cc(O)cc(c1)C[C@H](NC(=O)[C@H](C(C)C)N(C)C(=O)CN(C)C(=O)[C@@H]1[C@H](C)N1[S@@+]([O-])C(C)(C)C)C(=O)N1CCC[C@H](N1)C(=O)OCC(C)(C)C2 (stereo partly drawn) | 7.00 to 8.00 |

get_value(item= CCn1c(-c2cccnc2[C@H](C)OC)c2c3cc(ccc31)-c1cc(O)cc(c1)C[C@H](NC(=O)[C@H](C(C)C)N1CCC3(CCN(C(=O)[C@@H]4CN4)CC3)C1=O)C(=O)N1CCC[C@H](N1)C(=O)OCC(C)(C)C2 , readout=pIC50) returns 7.00 to 8.00

----------
// values below are reported pIC50
Target Under Test: KRAS G13D (Homo sapiens, UniProt P01116+P62937, G13D)
Protocol Notes: Ras-Raf disruption/FRET/MOA assay, KRAS G13D
Assay type: biochemical
Stated Conditions: disruption of BRAF RBD binding, with Cyclophilin A; read-out: KRAS G13D FRET IC50
Description: Disruption of B-Raf Ras-Binding Domain (BRAF^RBD) Interaction with K-Ras by Compounds of the Invention (Also Called a FRET Assay or an MOA Assay) Note—The following protocol describes a procedure for monitoring disruption of K-Ras G12C (GMP-PNP) binding to BRAF^RBD by a compound of the invention. This protocol may also be executed substituting other Ras proteins or nucleotides, such as K-Ras G12D and K-Ras G13D. […]
pIC50: −log10 of the molar value.

| Compound | Target Under Test | pIC50 |
| --- | --- | --- |
| CCn1c(-c2cnccc2COC)c2c3cc(ccc31)-c1cc(O)cc(c1)C[C@H](NC(=O)[C@H](C(C)C)N(C)C(=O)CN(C)C(=O)[C@@H]1CN1S(C)(=O)=O)C(=O)N1CCC[C@H](N1)C(=O)OCC(C)(C)C2 (some centres unmarked) | KRAS G13D (Homo sapiens, UniProt P01116+P62937, G13D) | 6.00 to 7.00 |

Now consider the entry below.
pIC50 in this record for CCn1c(-c2cccnc2[C@H](C)OC)c2c3cc(ccc31)-c1cc(O)cc(c1)C[C@H](NC(=O)[C@H](C(C)C)N1CCCC3(CN(C(=O)[C@@H]4CN4)C3)C1=O)C(=O)N1CCC[C@H](N1)C(=O)OCC(C)(C)C2 : 7.00 to 8.00
